molecular target: T1, human PD-L1 (human, UniProt Q9NZQ7 19-239, limits assumed); test: cell binding assay, inhibition of Hu PD-L1/PD-1 binding
T1 construct: also called Hu PD-L1; hPD-L1
T1 sequence (Q9NZQ7 19-239 limits assumed): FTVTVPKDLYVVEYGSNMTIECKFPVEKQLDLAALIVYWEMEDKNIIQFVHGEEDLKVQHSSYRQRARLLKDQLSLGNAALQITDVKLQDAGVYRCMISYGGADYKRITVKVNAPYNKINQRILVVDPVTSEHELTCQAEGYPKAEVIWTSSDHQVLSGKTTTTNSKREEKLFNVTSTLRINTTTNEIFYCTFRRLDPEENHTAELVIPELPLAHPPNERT
pIC50: −log10 of the molar value. Positions of bridges follow the written chain, without caps; N, C: chain ends. Non-standard residues stand in square brackets, D forms with d. NMeNle = CCCC[C@H](NC)C(=O)O; NMeA = CN[C@@H](C)C(=O)O; Sar = CNCC(=O)O
measured metric: pIC50

• {CH2CO}-W[NMeA]NPHL[Sar]WSW[NMeNle][NMeNle]RCG-NH2 (thioether N-14; SMILES CCCC[C@H]1C(=O)N(C)[C@@H](CCCC)C(=O)N[C@@H](CCCNC(=N)N)C(=O)N[C@H](C(=O)NCC(N)=O)CSCC(=O)N[C@@H](Cc2c[nH]c3ccccc23)C(=O)N(C)[C@@H](C)C(=O)N[C@@H](CC(N)=O)C(=O)N2CCC[C@H]2C(=O)N[C@@H](Cc2c[nH]cn2)C(=O)N[C@@H](CC(C)C)C(=O)N(C)CC(=O)N[C@@H](Cc2c[nH]c3ccccc23)C(=O)N[C@@H](CO)C(=O)N[C@@H](Cc2c[nH]c3ccccc23)C(=O)N1C, macrocyclic peptide, Formula I series; also called Compound 25) [Compound No. 25] = 7.72
